Where do these numbers come from? They come from PubChem BioAssay AID588493.

target: 26S proteasome non-ATPase regulatory subunit 14 (Homo sapiens); experiment: inhibition of 26S proteasome subunit Rpn11 – biochemical, fluorescence polarization, uHTS, primary screen (AID 588493); settings: human 26S proteasome, Ub4-pepOG fluorescence polarization; at 20 µM; 20S core pre-blocked with epoxomicin
The campaign covered roughly 360,000 compounds. About 2,100 (0.58%) were called active.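 The calls were made as follows: active = inhibition at 20 µM, scaled to each plate's controls, above about 33% (limit read from the data); inactive = the rest.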 What follows is part of a selection rich in actives, with near analogues and random picks from the rest.
Form entry, call: pick from True (active), False (inactive)

Illustrative cases are given below, each with its answer.
CCC[C@@H]1C[C@@]1(CCC)[C@@H](NC(=O)c1ccccc1)c1ccc(C(=O)OC)cc1 : False
COc1ccc(CNc2c(CO)cnc3c2cnn3C)cc1 : False
C/C(=N/NS(=O)(=O)c1ccccc1)c1ccc(NC(=O)C(F)(F)F)cc1 : False
CC(C)Oc1ccc(S(=O)(=O)N2CCOCC2)cc1NC(=O)C1CCCC1 : False
COc1ccccc1OCCn1c(SCC(N)=O)nc2ccccc21 : False
COc1ccc2[nH]c3c(C)c4cc[n+](C)cc4c(C)c3c2c1 : True
CCN(c1ccccc1)S(=O)(=O)c1cc2c(cc1C)n(C)c(=O)c(=O)n2C : False
CCCC[C@H]1COCCS(=O)(=O)N1Cc1cccc(Cl)c1 : False
CCCCOC(=O)c1ccc(NC(c2ccc(C)cc2)P(=O)(OC)OC)cc1 (configuration not stated) : False
COc1ccc(Cl)cc1N(CC(=O)N/N=C/c1ccc(OCC(N)=O)cc1)S(C)(=O)=O : False

Attention now turns to another entry.
Check the results log: what was the call for COCCCNC(=S)NCCNc1nc2cc(C)c(C)cc2cc1C#N ?
False

###

molecular target: 26S proteasome non-ATPase regulatory subunit 14 (Homo sapiens) (UniProt O00487); test: inhibition of 26S proteasome subunit Rpn11 – biochemical, fluorescence polarization, uHTS, primary screen (AID 588493); conditions: human 26S proteasome, Ub4-pepOG fluorescence polarization; at 20 µM; 20S core pre-blocked with epoxomicin
Sequence (O00487 whole entry, looked up): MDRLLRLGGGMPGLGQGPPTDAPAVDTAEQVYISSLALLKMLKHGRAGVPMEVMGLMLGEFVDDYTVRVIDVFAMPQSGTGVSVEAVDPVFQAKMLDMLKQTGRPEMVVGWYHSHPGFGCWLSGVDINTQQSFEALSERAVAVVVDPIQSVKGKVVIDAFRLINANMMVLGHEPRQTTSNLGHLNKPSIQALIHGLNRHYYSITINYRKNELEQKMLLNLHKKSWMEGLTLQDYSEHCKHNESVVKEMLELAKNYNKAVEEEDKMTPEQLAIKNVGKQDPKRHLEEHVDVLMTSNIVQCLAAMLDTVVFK
Out of some 360,000 compounds screened, about 2,100 (0.58%) were called active.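 How the source made its calls: active means inhibition at 20 µM, scaled to each plate's controls, above about 33% (limit read from the data); inactive means the rest.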 Only a selection was taken, and actives are over-represented in it overall.
Pick one: active, inactive

CC1(C)C(C=C(Cl)Cl)C1C(=O)N(Cc1ccc(Cl)cc1)C1CCS(=O)(=O)C1 (stereo unspecified) : inactive

# outcome recorded in this test, key = COc1ccc(-c2ccnc(SCC(=O)N3CCOCC3)n2)cc1
inactive

What is the recorded call for this compound in the test? CCn1c(/C=N/NC(=O)c2ccc(OC)cc2)nc2ccccc21
inactive

# fetch the recorded call for CCOc1cc(/C=N/NC(=O)CN2CCCCC2)ccc1O here
inactive

###

biological target: 26S proteasome non-ATPase regulatory subunit 14 (Homo sapiens) (UniProt O00487); assay: inhibition of 26S proteasome subunit Rpn11 – biochemical, fluorescence polarization, uHTS, primary screen (AID 588493); details: human 26S proteasome, Ub4-pepOG fluorescence polarization; at 20 µM; 20S core pre-blocked with epoxomicin
Hit rate of the full screen: of about 360,000 compounds, about 2,100 (0.58%) were called active.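 The calls were made as follows: active = inhibition at 20 µM, scaled to each plate's controls, above about 33% (limit read from the data); inactive = the rest.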 Many of the other results were omitted from the sample, so actives are more common in it than they were.
Choose one outcome from this list and give only that: T = active, F = inactive

Worked cases, answers included:
O=C(O)c1ccc(NN=CC2=C(N3CCOCC3)/C(=C/c3ccccc3)CC2)cc1 : T
Cn1cnnc1SCC(=O)Nc1ccc(N2CCOCC2)cc1 : F
Cc1c(-c2ccccc2)cn2c1-c1ccc(C)n1CC2 : T
CN1CCNC(=O)C1CC(=O)N1CC=C(c2ccc(F)cc2)CC1 (centres undefined) : F
CN1CCN(c2ccc(NC(=O)c3cc(Cl)c4c(c3)OCCO4)cc2)CC1 : F

How was C=CCn1c(SCC(=O)NC(=O)Cc2ccccc2)nc2ccccc2c1=O classified in this test?
F

Give the logged outcome of this assay for the following compound: COc1ccc(CNC(=O)C(C)n2nc(C)c3c(C)n(-c4ccccc4)nc3c2=O)c(OC)c1 (centres undefined)
F

Given CCC(C)Sc1nc(C)nc2c1c(=O)n(C)c(=O)n2C (centres undefined) , state the outcome it received in this test.
F

For CC(=O)N(O)CCCCCNC(=O)CCC(=O)N(O)CCCCCNC(=O)CCC(=O)N(O)CCCCCNC(=O)CCC(=O)O , what call appears in the results of this test?
F

Could you please tell me the result logged for N#Cc1ccc(-c2ccc3nccn3c2)cc1 in this assay?
F

Hello, I am checking results. What call was entered for COc1ccc(NC(=O)CNC(=O)Cn2ccc3ccccc3c2=O)c(OC)c1 ?
F

Can you look up the reported call for CC(C)=CCN1CCN(CCCc2ccccc2)CC1CCO (centres undefined) for me?
F

Tell me the recorded outcome of this test for C=CC(=O)Nc1ccc(Nc2ccnc(Nc3ccc(N4CCN(C)CC4)cc3)n2)cc1 .
T

Entry CSc1ncnc2c1ncn2CCCNCC(C)c1ccccc1 (centres undefined) : call = ?
F

What was the test verdict on Cc1ccc(/C=N/NC(=O)C2=NNC(c3ccccc3)(c3ccccc3)C2)c(O)c1 ?
F

// return assay outcome for Oc1c(CN2CCCC2)cc(COCc2ccccc2)c2cccnc12
T

Look up the recorded call for CCOc1ccc2oc(C(=O)N(CC)CC(=O)Nc3ccc(NC(C)=O)cc3)c(C)c2c1 in this test.
F

Can you look up the reported call for Cc1cc(C)c(-c2csc(NC(=O)CCCc3nc4ccccc4c(=O)[nH]3)n2)c(C)c1 for me?
F

Tell me the assay call for CC(C)CC1C(=O)N(Cc2cn(Cc3ccco3)nn2)CCS(=O)(=O)N1Cc1ccc(-c2ccc(Cl)c(Cl)c2)cc1 (centres undefined) please.
T

###

inhibition overview
target: 26S proteasome non-ATPase regulatory subunit 14 (Homo sapiens); assay: inhibition of 26S proteasome subunit Rpn11 – biochemical, fluorescence polarization, uHTS, primary screen (AID 588493); conditions: human 26S proteasome, Ub4-pepOG fluorescence polarization; at 20 µM; hits give high values; 20S core pre-blocked with epoxomicin
Among all 360,000 compounds or so, about 2,100 (0.58%) were called active. Shown is part of a subset that was picked to be rich in actives.
Write the answer as a number in %, unit excluded.

Worked examples, 2 molecules total:
N#CCC(=O)Nc1ccc(C(=O)OCC(=O)Nc2sc3c(c2C#N)CCCC3)cc1 : 39.6
Cc1nc2ccccc2n1C(=O)N1CCOCC1 : 58.5

# return recorded inhibition for input C#CCNc1nc(C(C)C)nc2c1nnn2Cc1ccccc1F
-3.7

Tell me inhibition reported for Cc1ccc(OCC(=O)NCCCNC(=O)c2cccnc2)cc1C
0.1

Please report inhibition for the following molecule: O=C(NCc1ccccc1Cl)C1CCN(S(=O)(=O)c2cccc3nonc23)CC1
4.7

###

molecular target: 26S proteasome non-ATPase regulatory subunit 14 (Homo sapiens); experiment: inhibition of 26S proteasome subunit Rpn11 – biochemical, fluorescence polarization, uHTS, primary screen (AID 588493); conditions: human 26S proteasome, Ub4-pepOG fluorescence polarization; at 20 µM; hits give high values; 20S core pre-blocked with epoxomicin
The campaign covered roughly 360,000 compounds. About 2,100 (0.58%) were called active. The sample holds actives, similar compounds and a random draw of the others, so the mix is not that of the screen.
Below, each entry is listed alongside its reported inhibition.
Expressed in %, but write only the number.

CSC1=N/C(=C\C=C\c2cccs2)C(=O)S1 : 41.3
Cc1cccc(OCc2nnc(SCc3nc4cc(C(F)(F)F)ccc4c(=O)[nH]3)o2)c1 : 46.5
Cc1ccc(Nc2nc(N)nc(CSc3nnc(C)s3)n2)cc1 : -0.4

Alright, here's another compound for you.
Please give measured inhibition of the following entry: CC(C)=C(NC(=O)c1ccco1)C(=O)NCCc1nc2ccccc2[nH]1
-7.6

###

molecular target: 26S proteasome non-ATPase regulatory subunit 14 (Homo sapiens) (UniProt O00487); assay: inhibition of 26S proteasome subunit Rpn11 – biochemical, fluorescence polarization, uHTS, primary screen (AID 588493); details: human 26S proteasome, Ub4-pepOG fluorescence polarization; at 20 µM; 20S core pre-blocked with epoxomicin
The campaign covered roughly 360,000 compounds. About 2,100 (0.58%) were called active.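 Rule for the calls: active = inhibition at 20 µM, scaled to each plate's controls, above about 33% (limit read from the data); inactive = the rest.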 The full list was thinned out, with actives kept by preference.
Output constraint: value belongs to yes for active, no for inactive

CCOC(=O)c1cc(-c2sc(NC(=O)c3ccccc3)nc2C)n(Cc2ccccc2)n1 : no
CCN1CCCC1CNC(=O)c1cc2cc(OC)c(OC)cc2[nH]1 (stereo unspecified) : no
O=c1c2ccccc2ncn1CCc1ccncc1 : no
N#Cc1cccc(NC(=O)COC(=O)c2ccccc2C(=O)c2ccc(Cl)c([N+](=O)[O-])c2)c1 : no

Query: recorded result category for NC(=O)COc1ccc(/C=N/NC(=O)C2CCCN2S(=O)(=O)c2ccc(Cl)cc2)cc1 (stereo unspecified) in this test
no

Could you kindly confirm the outcome this assay logged for Cc1ccc2cc(C#N)c(NCCNC(=S)NCCCN3CCOCC3)nc2c1 ?
yes

# outcome recorded in this test, key = CCOC(=O)NN1C(=O)c2ccccc2NC1c1ccccc1O (stereo unspecified)
no

Outcome logged for Cc1ccccc1CSCC(=O)NC(=O)NC(C)(C)C in this assay:
no

Assay result, entry Cn1c(C(=O)N2CCC(C(N)=O)CC2)cc2c(=O)n(C)c3ccccc3c21 — outcome?
no

Dear all, I need the recorded test outcome for Cc1c(CCC(=O)N[C@@H](CC(C)C)C(=O)O)c(=O)oc2c(C)c3oc4c(c3cc12)CCCC4 , thank you.
no

Hi, sorry to bother you, what did the test record for Cc1ccc(C(=O)N2CCCC2)c(F)c1F ?
no

Test call, this compound: O=C(Nc1cccc(C(=O)O)c1)/C(=C\c1ccccc1)NC(=O)c1ccc(Br)o1
no
